Test: Effect of food on bioavailability of co-formulated tablets, healthy Japanese subjects (Example 20)
Assay type: in vivo, human
Settings: both sexes, human, in vivo, mean Tmax
Record form. Attribute: Tmax. Fill in for each entry.
Please make sure the unit comes right after the number.

molecule	Tmax
CC(C)c1nc(CN(C)C(=O)N[C@H](C(=O)N[C@@H](Cc2ccccc2)C[C@H](O)[C@H](Cc2ccccc2)NC(=O)OCc2cncs2)C(C)C)cs1 [ritonavir, reference compound]	3.4 h

Problem: What value of Tmax has been recorded for this entry: Cc1cnc(C(=O)N[C@H]2CCCCC/C=C\[C@@H]3C[C@@]3(C(=O)NS(=O)(=O)C3CC3)NC(=O)[C@@H]3C[C@@H](Oc4nc5ccccc5c5ccccc45)CN3C2=O)cn1
Result: 4.2 h
